- TARGET UNDER TEST: T1, membrane LIGHT G188A (human, UniProt O43557 1-240)
- T1 construct: full-length LIGHT with the substitution on HEK293FF cells
- T1 chain: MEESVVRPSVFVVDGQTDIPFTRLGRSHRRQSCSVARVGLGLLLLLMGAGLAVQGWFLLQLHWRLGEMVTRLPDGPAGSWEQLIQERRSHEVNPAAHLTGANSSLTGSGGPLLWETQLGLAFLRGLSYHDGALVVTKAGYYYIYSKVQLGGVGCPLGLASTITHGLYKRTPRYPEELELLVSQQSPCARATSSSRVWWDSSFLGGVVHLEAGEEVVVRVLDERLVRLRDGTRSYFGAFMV
- ASSAY NOTES: flow cytometry, transfected HEK293FF, mAb at EC50
- Procedure: The day of transfection the cells were seeded in a 24-well plate at 0.6×10⁶ cells/well. […] The cells were then washed as above, resuspended in 100 μl of FACS buffer and binding of the antibodies to the constructs was measured using flow cytometry and a total of 10,000 cells were acquired for each sample. […]
METRIC: binding, % of WT (%)
Reply with just the number (in %).

The measured binding, % of WT associated with 2B11 (antibody, human IgG4, V domains shown, chimeric human IgG4 (S-to-P, L-to-E at 248), human CL; also called Parental 2B11) VH: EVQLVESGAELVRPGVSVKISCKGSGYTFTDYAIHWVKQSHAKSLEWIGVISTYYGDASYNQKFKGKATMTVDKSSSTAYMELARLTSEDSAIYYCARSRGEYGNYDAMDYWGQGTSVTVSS VL: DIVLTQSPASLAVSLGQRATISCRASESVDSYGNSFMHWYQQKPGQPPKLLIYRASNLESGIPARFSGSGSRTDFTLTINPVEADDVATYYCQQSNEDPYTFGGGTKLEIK reads 3

Sure, the documented binding, % of WT for 3B04 (antibody, human IgG4, V domains shown, chimeric: mouse variable domains on human IgG4 HC (S-to-P and L-to-E at 248) and human CL; also called Parental 3B04; 3B04 chimeric) VH: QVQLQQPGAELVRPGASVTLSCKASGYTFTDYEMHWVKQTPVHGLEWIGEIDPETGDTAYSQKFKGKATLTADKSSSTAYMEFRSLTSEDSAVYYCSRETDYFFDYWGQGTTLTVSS VL: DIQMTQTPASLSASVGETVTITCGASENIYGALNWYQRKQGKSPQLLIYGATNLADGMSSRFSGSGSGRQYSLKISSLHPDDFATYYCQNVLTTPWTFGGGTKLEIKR is 6

Briefly, binding, % of WT measured for 2E08 (antibody, human IgG4, V domains shown, chimeric human IgG4 (S-to-P, L-to-E at 248), human CL; also called Parental 2E08) VH: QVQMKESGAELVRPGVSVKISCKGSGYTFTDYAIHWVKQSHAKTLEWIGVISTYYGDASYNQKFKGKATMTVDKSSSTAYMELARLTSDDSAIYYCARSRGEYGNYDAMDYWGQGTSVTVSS VL: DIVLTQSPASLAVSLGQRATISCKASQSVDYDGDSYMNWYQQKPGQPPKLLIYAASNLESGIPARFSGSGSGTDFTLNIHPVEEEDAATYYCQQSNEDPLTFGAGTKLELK : 44

Short answer for 3C10 (antibody, human IgG4, V domains shown, chimeric human IgG4 (S-to-P, L-to-E at 248), human CL; also called Parental 3C10) VH: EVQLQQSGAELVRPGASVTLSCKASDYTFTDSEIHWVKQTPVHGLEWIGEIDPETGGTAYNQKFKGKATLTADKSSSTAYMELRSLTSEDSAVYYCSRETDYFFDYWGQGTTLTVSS VL: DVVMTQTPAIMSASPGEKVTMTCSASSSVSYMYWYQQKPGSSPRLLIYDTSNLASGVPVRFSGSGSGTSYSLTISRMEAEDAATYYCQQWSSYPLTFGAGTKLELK : binding, % of WT was 3

Measured binding, % of WT, 3D12 (antibody, human IgG4, V domains shown, chimeric: mouse variable domains on human IgG4 HC (S-to-P and L-to-E at 248) and human CL; also called Parental 3D12; 3D12 chimeric) VH: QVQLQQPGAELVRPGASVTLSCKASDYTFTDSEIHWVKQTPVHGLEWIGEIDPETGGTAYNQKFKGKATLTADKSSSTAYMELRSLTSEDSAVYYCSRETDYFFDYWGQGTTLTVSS VL: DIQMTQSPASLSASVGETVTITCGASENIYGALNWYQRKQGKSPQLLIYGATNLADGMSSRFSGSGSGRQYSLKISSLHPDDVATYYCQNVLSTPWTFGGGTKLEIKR : 20

So, 3E09 (antibody, V domains shown, chimeric human IgG4 (S-to-P, L-to-E at 248), human CL; also called Parental 3E09) VH: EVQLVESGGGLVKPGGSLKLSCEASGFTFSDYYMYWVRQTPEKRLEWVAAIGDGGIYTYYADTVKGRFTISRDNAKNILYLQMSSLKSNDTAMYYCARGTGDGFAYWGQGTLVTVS VL: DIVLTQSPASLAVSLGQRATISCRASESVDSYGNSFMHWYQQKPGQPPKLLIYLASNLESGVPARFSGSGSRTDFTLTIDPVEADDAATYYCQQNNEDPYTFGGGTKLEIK ? Its binding, % of WT was 35

Form: binder = 3A07 (antibody, human IgG4, V domains shown, chimeric human IgG4 (S-to-P, L-to-E at 248), human CL; also called Parental 3A07) VH: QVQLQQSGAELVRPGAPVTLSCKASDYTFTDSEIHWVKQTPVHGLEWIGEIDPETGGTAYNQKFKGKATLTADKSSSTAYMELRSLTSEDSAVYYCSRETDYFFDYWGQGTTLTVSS VL: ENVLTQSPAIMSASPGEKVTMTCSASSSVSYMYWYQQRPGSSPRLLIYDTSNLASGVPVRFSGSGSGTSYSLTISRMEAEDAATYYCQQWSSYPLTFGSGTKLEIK ; binding, % of WT = 5
